target: T1, MQDWLTFQKKHI
T1 chain: MQDWLTFQKKHI
measuredParameter: Specific activity (unit/mg)
Could you give me the number in unit/mg? Just the number is fine.

Just so you know, measured Specific activity (unit/mg) for MetAP-M206T-Q233G (protein) AISIKTPEDIEKMRVAGRLAAEVLEMIEPYVKPGVSTGELDRICNDYIVNEQHAVSACLGYHGYPKSVCISINEVVCHGIPDDAKLLKDGDIVNIDVTVIKDGFHGDTSKMFIVGKPTIMGERLCRITQESLYLALRMVKPGINLREIGAAIQKFVEAEGFSVVREYCGHGIGRGFHEEPQVLHYDSRETNVVLKPGMTFTIEPTVNAGKKEIRTMKDGWTVKTKDRSLSAGYEHTIVVTDNGCEILTLRKDDTIPAIISHDE came out at 0.59

Reported Specific activity (unit/mg) of MetAP-GTG (protein) AISIKTPEDIEKMRVAGRLAAEVLEMIEPYVKPGVSTGELDRICNDYIVNEQHAVSACLGYHGYPKSVCISINEVVCHGIPDDAKLLKDGDIVNIDVTVIKDGFHGDTSKMFIVGKPTIMGERLCRITQESLYLALRMVKPGINLREIGAAIQKFVEAEGFSVVREGCGHGIGRGFHEEPQVLHYDSRETNVVLKPGMTFTIEPTVNAGKKEIRTMKDGWTVKTKDRSLSAGYEHTIVVTDNGCEILTLRKDDTIPAIISHDE : 4.24

Short answer for MetAP-YMQ (wild type E. coli methionine aminopeptidase) (protein) AISIKTPEDIEKMRVAGRLAAEVLEMIEPYVKPGVSTGELDRICNDYIVNEQHAVSACLGYHGYPKSVCISINEVVCHGIPDDAKLLKDGDIVNIDVTVIKDGFHGDTSKMFIVGKPTIMGERLCRITQESLYLALRMVKPGINLREIGAAIQKFVEAEGFSVVREYCGHGIGRGFHEEPQVLHYDSRETNVVLKPGMTFTIEPMVNAGKKEIRTMKDGWTVKTKDRSLSAQYEHTIVVTDNGCEILTLRKDDTIPAIISHDE : Specific activity (unit/mg) was 0.62
